B1: PRPH (parent)
chain: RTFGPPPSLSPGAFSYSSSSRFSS

Variants of: B1
Assay overview: protein stability index of a GFP-peptide fusion (GPS, HEK-293T) (PSI 1-6); higher = more stable;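 also: lentivirally expressed fusions sorted by FACS into six bins by GFP to DsRed ratio, PSI derived from sequencing read proportions per bin multiplied by bin number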
Recorded conditions: c terminus: a fixed tail appended
Experimental endpoint: protein stability index
The reply should be a number, written without any unit.

Here are 2 variants together with their reported answers.
| Seq text | Measured |
| --- | --- |
| RTFGPPGSLSPGAFSYSSSSRFSS [P7G] | 2.92 |
| RTFGPVPSLSPGAFSYSSSSRFSS [P6V] | 3.05 |

Please find the next variant below.
Per the record, RTFGPPPSLSPGAFSYSSASRFSS [S19A] has protein stability index of 3.08
